FYI, the data here is from patent US20130121994A1.

Biological target: human kinase Mps-1 (Homo sapiens, UniProt P33981)
Construct: N-terminally GST-tagged human full length recombinant Mps-1 kinase; GST (N)
Assay: Mps-1 kinase assay (HTRF)
measured_quantity: IC50 (nM)

1. CC(C)(C)CCC(=O)Nc1ccc(-c2ccc3nc(Nc4ccccc4C#N)nn3c2)cc1 [Example 11.100] | 8.08
2. CCOc1cc(C(=O)NCC(C)(C)O)ccc1Nc1nc2ccc(-c3ccc(C(=O)NCCC(F)(F)F)cc3)cn2n1 [Example 11.034] | 1.38
3. COc1cc(C(=O)N(C)CCN(C)C(=O)OC(C)(C)C)ccc1Nc1nc2ccc(-c3ccc(C(=O)NCC(F)(F)F)cc3)cn2n1 [Example 11.021] | 3.5
4. CC(C)(C)CCNC(=O)c1cccc(-c2ccc3nc(Nc4ccccc4C#N)nn3c2)c1 [Example 11.055] | 9.81
5. COc1cc(C#N)ccc1Nc1nc2ccc(-c3cccc(NC(C)=O)c3)cn2n1 [Example 2.12] | 200
6. CC(C)[C@@H](C)NC(=O)c1cccc(-c2ccc3nc(Nc4ccccc4C#N)nn3c2)c1 [Example 11.047] | 4.15
7. N#Cc1ccccc1Nc1nc2ccc(-c3ccc(C(N)=O)cc3)cn2n1 [Example 3.7] | 140
8. CS(=O)(=O)Nc1cccc(-c2ccc3nc(Nc4ccccc4C#N)nn3c2)c1 [Example 3.5] | 240
9. COc1cc(C(=O)NC(C)(C)C)ccc1Nc1nc2ccc(-c3ccc(NC(=O)CC(F)(F)F)cc3)cn2n1 [Example 11.101] | 2.53
10. CCOc1ncccc1Nc1nc2ccc(-c3ccc(C(=O)NCC(F)(F)F)cc3)cn2n1 [Example 11.003] | 3.74

====

pIC50: recorded values
Target: human kinase Mps-1 (Homo sapiens, UniProt P33981)
Construct: N-terminally GST-tagged human full length recombinant Mps-1 kinase; GST (N)
Experiment: Mps-1 kinase assay (HTRF)
pIC50: −log10 of the molar value.
measured_quantity: pIC50

1. CC(=O)Nc1ccccc1-c1ccc2nc(Nc3ccccc3C#N)nn2c1 | 5.21
2. CC(C)CNC(=O)c1cccc(-c2ccc3nc(Nc4ccccc4C#N)nn3c2)c1 | 8.47
3. C[C@H](NC(=O)c1cccc(-c2ccc3nc(Nc4ccccc4C#N)nn3c2)c1)C(C)(C)C | 7.91
4. CC(=O)Nc1cccc(-c2ccc3nc(Nc4ccc(S(C)(=O)=O)cc4)nn3c2)c1 | 6.11
5. COC(C)(C)CNC(=O)c1cccc(-c2ccc3nc(Nc4ccccc4C#N)nn3c2)c1 | 8.04
6. CC(C)(C)NC(=O)c1ccc(-c2ccc3nc(Nc4ccccc4C#N)nn3c2)cc1 | 7.37

====

Target: human kinase Mps-1 (Homo sapiens, UniProt P33981)
Construct: N-terminally GST-tagged human full length recombinant Mps-1 kinase; GST (N)
Test: Mps-1 kinase assay (HTRF)
measured_quantity: IC50 (nM)

1) COc1ccccc1Nc1nc2ccc(-c3ccc(N)cc3)cn2n1 | 72
2) CC(C)(C)NC(=O)c1cccc(-c2ccc3nc(Nc4ccccc4C#N)nn3c2)c1F | 18.2
3) COc1cc(C(=O)NCC(C)(C)O)ccc1Nc1nc2ccc(-c3ccc(C(=O)NCCC(F)(F)F)cc3)cn2n1 | 7.31
4) N#Cc1ccccc1Nc1nc2ccc(-c3ccc4[nH]ccc4c3)cn2n1 | 210
5) CC(=O)Nc1cccc(-c2ccc3nc(Nc4ccccc4OC(F)(F)F)nn3c2)c1 | 340

====

Molecular target: human kinase Mps-1 (Homo sapiens)
Construct: N-terminally GST-tagged human full length recombinant Mps-1 kinase; GST (N)
Experiment: Mps-1 kinase assay (HTRF)
pIC50: −log10 of the molar value.
Classification field: 1.0 = pIC50 at or over 7; 0.0 = pIC50 under 7.

1) CCOc1cc(C(=O)NCCS(C)(=O)=O)ccc1Nc1nc2ccc(-c3cccc(C(=O)NCC(F)(F)F)c3)cn2n1 | 1.0
2) Cc1cc(O)ccc1-c1ccc2nc(Nc3ccccc3C#N)nn2c1 | 0.0
3) CC(C)(O)CNC(=O)c1cccc(-c2ccc3nc(Nc4ccccc4C#N)nn3c2)c1 | 1.0
4) O=C(CCl)Nc1ccc(-c2ccc3nc(Nc4ccccc4C(F)(F)F)nn3c2)cc1 | 0.0
5) C[C@H](O)CNC(=O)c1cccc(-c2ccc3nc(Nc4ccccc4C#N)nn3c2)c1 | 1.0
6) CCOc1cc(C(=O)NCC(C)(C)O)ccc1Nc1nc2ccc(-c3ccc(C(=O)NCC(F)(F)F)cc3)cn2n1 | 1.0
7) N#Cc1ccccc1Nc1nc2ccc(-c3cccc(C(=O)NCC(F)(F)F)c3F)cn2n1 | 1.0
8) Cc1cc(-c2ccc3nc(Nc4cncnc4)nn3c2)cc(C)c1O | 0.0
9) COc1cc(C(=O)NC(C)(C)CO)ccc1Nc1nc2ccc(-c3ccc(C(=O)NCC(F)(F)F)c(C)c3)cn2n1 | 1.0
10) COc1ccc(C#N)cc1Nc1nc2ccc(-c3cc(C)c(O)c(C)c3)cn2n1 | 0.0
11) CNC(=O)c1ccc(Nc2nc3ccc(-c4cc(C)c(O)c(C)c4)cn3n2)cc1 | 1.0
12) COc1cc(C(=O)NCCO)ccc1Nc1nc2ccc(-c3ccc(C(=O)NCC(F)(F)F)cc3)cn2n1 | 1.0
13) CC(=O)Nc1cccc(-c2ccc3nc(Nc4cccnc4)nn3c2)c1 | 0.0
14) CC(=O)Nc1ccc(-c2ccc3nc(Nc4ccccc4C#N)nn3c2)cc1 | 1.0
15) COc1ccccc1-c1ccc2nc(Nc3ccccc3C#N)nn2c1 | 0.0

====

# IC50 values compiled below
Target: human kinase Mps-1 (Homo sapiens)
Construct: N-terminally GST-tagged human full length recombinant Mps-1 kinase; GST (N); purchased Invitrogen, Karslruhe, Germany PV4071
Sequence (P33981 1-857): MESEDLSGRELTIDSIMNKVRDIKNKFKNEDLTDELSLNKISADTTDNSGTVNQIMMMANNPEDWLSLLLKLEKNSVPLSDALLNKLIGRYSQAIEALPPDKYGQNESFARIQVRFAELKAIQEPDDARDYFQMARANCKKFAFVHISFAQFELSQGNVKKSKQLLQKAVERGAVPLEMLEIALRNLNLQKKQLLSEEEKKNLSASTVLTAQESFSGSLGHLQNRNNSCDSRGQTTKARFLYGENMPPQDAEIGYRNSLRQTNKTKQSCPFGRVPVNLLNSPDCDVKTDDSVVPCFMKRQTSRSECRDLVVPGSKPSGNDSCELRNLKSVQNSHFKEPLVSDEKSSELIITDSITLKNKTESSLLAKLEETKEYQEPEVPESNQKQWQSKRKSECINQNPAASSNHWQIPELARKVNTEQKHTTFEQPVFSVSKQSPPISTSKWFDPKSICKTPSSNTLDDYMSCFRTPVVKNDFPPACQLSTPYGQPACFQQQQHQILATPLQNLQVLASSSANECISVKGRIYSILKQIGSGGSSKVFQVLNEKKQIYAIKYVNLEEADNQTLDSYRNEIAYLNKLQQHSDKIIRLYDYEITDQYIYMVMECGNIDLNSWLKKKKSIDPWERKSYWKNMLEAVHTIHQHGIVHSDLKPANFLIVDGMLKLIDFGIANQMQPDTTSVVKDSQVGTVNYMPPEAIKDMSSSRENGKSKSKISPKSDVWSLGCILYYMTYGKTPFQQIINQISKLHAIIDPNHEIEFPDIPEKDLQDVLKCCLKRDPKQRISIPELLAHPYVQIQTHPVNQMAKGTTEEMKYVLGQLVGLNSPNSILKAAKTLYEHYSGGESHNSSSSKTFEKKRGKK
Assay: Mps-1 kinase assay (HTRF)
Format: biochemical
measured_quantity: IC50

1. N#Cc1ccccc1Nc1nc2ccc(-c3cccc(C(=O)NCC(F)F)c3)cn2n1 | 4.18 nM
2. C[C@@H](NC(=O)c1cccc(-c2ccc3nc(Nc4ccccc4C#N)nn3c2)c1)C(F)(F)F | 1.27 nM
3. COc1cccnc1Nc1nc2ccc(-c3cc(C)c(O)c(C)c3)cn2n1 | 160 nM
4. COc1cc(C(=O)NC(C)(C)C)ccc1Nc1nc2ccc(-c3cccc(C(=O)NCC(C)(C)C)c3)cn2n1 | 1.23 nM
5. N#Cc1ccccc1Nc1nc2ccc(-c3ccc(CO)cc3)cn2n1 | 770 nM

====

Biological target: human kinase Mps-1 (Homo sapiens, UniProt P33981)
Construct: N-terminally GST-tagged human full length recombinant Mps-1 kinase; GST (N)
Test: Mps-1 kinase assay (HTRF)
pIC50: −log10 of the molar value.
Label rule met for high-side pIC50 (at or above 8) and rule not met for low-side pIC50 (below it).

1) CC(=O)Nc1cccc(-c2ccc3nc(Nc4ccc(C#N)cc4)nn3c2)c1 | rule not met
2) CCOCCNC(=O)c1ccc(Nc2nc3ccc(-c4ccc(C(=O)NCC(F)(F)F)cc4)cn3n2)c(OC)c1 | rule met
3) COc1cc(C(=O)NC(C)(C)CO)ccc1Nc1nc2ccc(-c3ccc(C(=O)NCC(F)(F)F)cc3)cn2n1 | rule met
4) N#Cc1ccccc1Nc1nc2ccc(-c3cccc(C(=O)NCCC(F)(F)F)c3F)cn2n1 | rule not met
5) N#Cc1ccccc1Nc1nc2ccc(-c3cccc(C(=O)NCCO)c3)cn2n1 | rule not met
6) COc1cc(C(=O)NC(C)(C)CO)ccc1Nc1nc2ccc(-c3ccc(C(=O)NCCC(F)(F)F)cc3)cn2n1 | rule met
7) N#Cc1ccccc1Nc1nc2ccc(-c3ccc(F)c(C(=O)O)c3)cn2n1 | rule not met
8) Cc1cc(-c2ccc3nc(Nc4cccnc4)nn3c2)cc(C)c1O | rule not met
9) COc1cc(C(=O)NCCS(C)(=O)=O)ccc1Nc1nc2ccc(-c3cccc(C(=O)NCC(C)(C)C)c3)cn2n1 | rule met
10) CCNC(=O)c1ccc(Nc2nc3ccc(-c4cccc(C(=O)NCC(F)(F)C(F)(F)F)c4)cn3n2)c(OC)c1 | rule met
11) CC(C)(C)CNC(=O)c1cccc(-c2ccc3nc(Nc4ccccc4C#N)nn3c2)c1 | rule met
12) N#Cc1ccccc1Nc1nc2ccc(-c3cccc(C(N)=O)c3)cn2n1 | rule not met
13) COc1cc(C(=O)NCCS(C)(=O)=O)ccc1Nc1nc2ccc(-c3cccc(C(=O)NCC(F)(F)F)c3)cn2n1 | rule met
14) CCOc1cc(C(=O)N(C)CCO)ccc1Nc1nc2ccc(-c3ccc(C(=O)NCC(F)(F)F)cc3)cn2n1 | rule met
